- test_system: human cyclin E-CDK2 (Homo sapiens)
- protocol_details: FlashPlate kinase assay, cyclin E-CDK2, Rb substrate
- condition_summary: recombinant cyclin E-CDK2, Rb phosphorylation, 1 μM ATP
reported_endpoint: IC50 (nM)
Just the number please, in nM, no unit attached.

Past entries and their recorded results:
> print(dat)
                                   molecule  numeric.value
1  Cc1ccc(C(=O)c2sc(Nc3ccc(OCCN(C)C)cc3)nc2N)cc1F           5990
2  C[C@H](COc1ccc(Nc2nc(N)c(C(=O)c3cccc(F)c3)s2)cc1)N1CCCC1           1040
3  CCN1CCC(Oc2ccc(Nc3nc(N)c(C(=O)c4cccc(C)c4)s3)cc2)C1 (stereo not drawn)            499
4  CCNCCOc1ccc(Nc2nc(N)c(C(=O)c3ccc(C)c(F)c3)s2)cc1           1760

[Q] Entry under review: CCN1CCCC(Oc2ccc(Nc3nc(N)c(C(=O)c4cccc(F)c4)s3)cc2)C1 (stereo not drawn) . Reported IC50?
[A] 1150

[Q] Find the recorded IC50 belonging to CCNCCOc1ccc(Nc2nc(N)c(C(=O)c3cccc(F)c3)s2)cc1 and report it.
[A] 892

[Q] Could you tell me which IC50 is on file for Cc1cccc(C(=O)c2sc(Nc3ccc(OC4CCNC4)cc3)nc2N)c1 (stereo not drawn) ?
[A] 817

[Q] # query: IC50 of entry COc1cccc(C(=O)c2sc(Nc3ccc(OC[C@@H](C)N4CCCC4)cc3)nc2N)c1
[A] 4910

[Q] Which IC50 value belongs to Nc1nc(Nc2ccc(OCCN3CCCC3)cc2)sc1C(=O)c1ccc2c(c1)OCO2 ?
[A] 4890

====

- test_system: human cyclin D1-CDK4 (Homo sapiens, UniProt P11802)
- Sequence (P11802 whole entry): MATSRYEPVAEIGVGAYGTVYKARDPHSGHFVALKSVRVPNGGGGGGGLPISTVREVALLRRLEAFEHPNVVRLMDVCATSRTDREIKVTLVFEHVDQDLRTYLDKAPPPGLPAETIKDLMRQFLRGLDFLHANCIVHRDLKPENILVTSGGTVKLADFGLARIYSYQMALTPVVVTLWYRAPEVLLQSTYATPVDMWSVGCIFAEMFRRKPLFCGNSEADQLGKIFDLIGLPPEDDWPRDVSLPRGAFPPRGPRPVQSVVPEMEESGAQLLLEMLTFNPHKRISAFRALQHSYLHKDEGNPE
- Sequence (P24385 whole entry partner): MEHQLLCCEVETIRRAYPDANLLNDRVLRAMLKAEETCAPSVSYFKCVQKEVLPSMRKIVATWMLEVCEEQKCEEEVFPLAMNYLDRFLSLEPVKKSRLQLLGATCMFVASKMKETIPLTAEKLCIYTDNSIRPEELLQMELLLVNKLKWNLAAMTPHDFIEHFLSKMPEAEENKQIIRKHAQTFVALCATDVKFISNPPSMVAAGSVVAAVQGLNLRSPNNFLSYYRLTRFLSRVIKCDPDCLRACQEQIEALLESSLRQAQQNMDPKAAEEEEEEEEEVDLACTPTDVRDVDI
- protocol_details: FlashPlate kinase assay, cyclin D1-CDK4, Rb substrate
- condition_summary: recombinant cyclin D1-CDK4, Rb phosphorylation, 1 μM ATP
reported_endpoint: IC50 (nM)
Number in nM, nothing else.

> print(dat)
                                   molecule  reported.endpoint  value.unit  numeric.value
1  CCNCCOc1ccc(Nc2nc(N)c(C(=O)c3ccc(C)c(F)c3)s2)cc1 [Example 103, Acetic Acid]               IC50          nM             41
2  CN(C)CCOc1ccc(Nc2nc(N)c(C(=O)c3cccc([N+](=O)[O-])c3)s2)cc1 [Example 54]               IC50          nM             36

Shift focus to the following entry.
[Q] Request: IC50, test system human cyclin D1-CDK4 (Homo sapiens, UniProt P11802), entry CC(COc1ccc(Nc2nc(N)c(C(=O)c3cccc(F)c3)s2)cc1)N(C)C (stereo not drawn) [Example 38]
[A] 97

====

- test_system: human cyclin B-CDK1 (Homo sapiens)
- Sequence (P06493 whole entry): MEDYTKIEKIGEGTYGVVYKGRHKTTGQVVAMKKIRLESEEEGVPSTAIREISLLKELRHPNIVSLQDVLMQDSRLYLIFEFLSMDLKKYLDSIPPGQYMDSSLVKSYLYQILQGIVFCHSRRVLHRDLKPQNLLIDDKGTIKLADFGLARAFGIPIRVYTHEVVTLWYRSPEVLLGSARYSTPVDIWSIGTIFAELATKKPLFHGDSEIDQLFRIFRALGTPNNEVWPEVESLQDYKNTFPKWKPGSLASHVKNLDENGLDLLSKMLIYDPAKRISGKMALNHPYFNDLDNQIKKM
- Sequence (P14635 whole entry partner): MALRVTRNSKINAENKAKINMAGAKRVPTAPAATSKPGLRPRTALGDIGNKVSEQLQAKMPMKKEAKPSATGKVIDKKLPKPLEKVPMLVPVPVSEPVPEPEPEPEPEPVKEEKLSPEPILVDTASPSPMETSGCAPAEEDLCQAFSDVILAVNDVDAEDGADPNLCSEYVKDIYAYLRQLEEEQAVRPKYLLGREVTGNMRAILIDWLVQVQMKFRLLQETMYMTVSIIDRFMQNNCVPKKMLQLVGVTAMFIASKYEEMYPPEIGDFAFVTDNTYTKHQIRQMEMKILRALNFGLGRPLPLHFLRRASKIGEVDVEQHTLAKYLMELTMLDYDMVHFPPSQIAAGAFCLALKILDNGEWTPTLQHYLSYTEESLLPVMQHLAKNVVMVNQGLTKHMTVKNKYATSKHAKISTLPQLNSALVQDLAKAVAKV
- protocol_details: FlashPlate kinase assay, cyclin B-CDK1, Rb substrate
- condition_summary: recombinant cyclin B-CDK1, Rb phosphorylation, 1 μM ATP
- Experimental: To determine inhibition of Cdk4, Cdk2 and Cdk1 activity, kinase assays were conducted using FlashPlate™ assays (NEN™-Life Science Products). FlashPlate assays were performed using recombinant human cyclin B-CDK1, human cyclin E-CDK2 or human cyclin D1-CDK4 complexes. […] The expression of the 62 Kd protein was under the control of an IPTG inducible promoter in an M15 E. coli strain. […] Purified Rb fusion protein stocks were quantitated for protein concentration, aliquoted, and stored at −70° C. […]
reported_endpoint: IC50 (nM)
Please state the figure in nM; there is no need to write the unit.

> print(dat)
                                   compound  reported.endpoint  numeric.value
1  CCN1CCC(Oc2ccc(Nc3nc(N)c(C(=O)c4cccc(F)c4)s3)cc2)C1 (stereo not shown) [Example 42]               IC50            298
2  Nc1nc(Nc2ccc(OC3CCNC3)cc2)sc1C(=O)c1cccc(C2CC2)c1 (stereo not shown) [Example 93, Acetic Acid]               IC50            859
3  Cc1ccc(C(=O)c2sc(Nc3ccc(OC[C@@H](C)N(C)C)cc3)nc2N)cc1F [Example 74]               IC50            869
4  CCN1CCCC(Oc2ccc(Nc3nc(N)c(C(=O)c4ccc(O)c(F)c4)s3)cc2)C1 (stereo not shown) [Example 82]               IC50           1020
5  CCCc1cc(C(=O)c2sc(Nc3ccc(OC4CCN(CC)C4)cc3)nc2N)ccc1O (stereo not shown) [Example 89, Acetic Acid]               IC50            261
6  CN(C)CCOc1ccc(Nc2nc(N)c(C(=O)c3ccc4c(c3)OCO4)s2)cc1 [Example 59]               IC50            434
7  C[C@H](COc1ccc(Nc2nc(N)c(C(=O)c3cccc(F)c3)s2)cc1)N1CCCC1 [Example 41]               IC50            435
8  CN(C)CCOc1ccc(Nc2nc(N)c(C(=O)c3cccc(C4CC4)c3)s2)cc1 [Example 69]               IC50           1780

[Q] Can you share its IC50? I mean this compound: CCNCCCOc1ccc(Nc2nc(N)c(C(=O)c3ccc(OC)c(F)c3)s2)cc1 [Example 148]
[A] 519

[Q] Returns the measured IC50 for the input compound. Input: Nc1nc(Nc2ccc(OCCN3CCCC3)cc2)sc1C(=O)c1cccc(C(F)(F)F)c1 [Example 128]
[A] 2050
